Every entry's value here was drawn from patent US11447484B2.

- studySystem: human recombinant D3 receptor (Homo sapiens (Human), UniProt P35462)
- Sequence (P35462 whole entry): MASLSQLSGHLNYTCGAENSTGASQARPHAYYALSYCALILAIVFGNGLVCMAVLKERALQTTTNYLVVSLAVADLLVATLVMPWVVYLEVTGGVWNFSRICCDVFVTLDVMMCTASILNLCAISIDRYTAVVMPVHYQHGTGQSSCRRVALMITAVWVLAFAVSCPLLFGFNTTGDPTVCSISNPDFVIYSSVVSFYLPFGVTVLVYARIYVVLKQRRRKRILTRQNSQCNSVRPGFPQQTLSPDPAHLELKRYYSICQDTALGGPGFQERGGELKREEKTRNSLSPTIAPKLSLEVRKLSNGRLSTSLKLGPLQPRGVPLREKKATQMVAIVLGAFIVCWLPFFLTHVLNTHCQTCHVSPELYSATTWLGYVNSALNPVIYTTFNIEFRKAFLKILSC
- runDescription: Test of binding inhibition for dopamine D3 receptor
- conditionContext: Jump-In HEK cell membranes, 2 nM [3H]-Methylspiperone, 120 min at 25° C.; read-out: hD3_Ki
outcomeMeasure: Ki (nM)

A: Cn1cc(CC(=O)N[C@H]2CC[C@H](CCN3C[C@@H]4C[C@]4(c4cc(C(C)(F)F)on4)C3)CC2)cn1
B: O=C(N[C@H]1CC[C@H](CCN2CCC(n3nccc3-c3ccccc3)CC2)CC1)c1cccc2ncccc12
C: CCc1cc([C@]23C[C@H]2CN(CC[C@H]2CC[C@H](NC(=O)Cc4cc(C)no4)CC2)C3)no1
D: Cc1ncc(CC(=O)N[C@H]2CC[C@H](CCN3CCC(c4nocc4C4CC4)CC3)CC2)s1
INPUT: Lab note: arrange the 4 molecules above from lowest to highest Ki. Returns: the labels listed in the requested order.
OUTPUT: C, A, D, B
(C: 0.23 nM, A: 0.45 nM, D: 0.95 nM, B: 2.7 nM)

A: Cn1cc(CC(=O)N[C@H]2CC[C@H](CCN3C[C@@H]4C[C@]4(c4cc(C5CC5)on4)C3)CC2)cn1
B: O=C(N[C@H]1CC[C@H](CCN2CCC(c3nccn3-c3ccccn3)CC2)CC1)c1cccc2ncccc12
INPUT: Hi, I'm comparing two records. Which one has the lower Ki, A or B ? Return value: the label identifying the chosen record.
OUTPUT: A
